- assayed target: cathepsin L (Rattus norvegicus)
- Construct: extracted from a rat liver and completely purified; from tissue; host or cells: rat liver
- method summary: Determination of inhibition rate against cathepsin L
- Format: biochemical
- experimental context: IC50 against cathepsin B divided by IC50 against cathepsin L
Structures can show the parent of a compound that is named as a salt.
Quick reference: B/L of the listed items.

The following molecules have reported results that may help.
NCCCC[C@H](NC(=O)[C@H]1O[C@@H]1C(=O)NC1Cc2ccccc2C1)C(=O)Nc1cccc2ccccc12 [Example 12, hydrochloride]	> 250
NCCCC[C@H](NC(=O)[C@H]1O[C@@H]1C(=O)N[C@@H](Cc1ccccc1)C(N)=O)C(=O)Nc1ccc(Cl)c2ccccc12 [Example 48, hydrochloride]	7045
COc1ccccc1NC(=O)[C@H](CCCCN)NC(=O)[C@H]1O[C@@H]1C(=O)N[C@@H](Cc1ccccc1)C(N)=O [Example 37, hydrochloride]	3906
NCCCC[C@H](NC(=O)[C@H]1O[C@@H]1C(=O)N[C@@H](Cc1ccccc1)C(=O)NCc1ccccc1)C(=O)Nc1cccc2ccccc12 [Example 26, hydrochloride]	7500
NCCCC[C@H](NC(=O)[C@H]1O[C@@H]1C(=O)N[C@@H](Cc1ccccc1)C(=O)NCCc1ccccc1)C(=O)N1CCc2ccccc21 [Example 47, hydrochloride]	150000

Please look at the following molecule next.
Lookup: Could you tell me which B/L is on file for CCCNC(=O)[C@H](Cc1ccccc1)NC(=O)[C@H]1O[C@@H]1C(=O)N[C@@H](CCCCN)C(=O)Nc1cccc2ccccc12 [Example 51, hydrochloride] ?
Found: > 85000

====

- assayed target: cathepsin L (Rattus norvegicus)
- Construct: extracted from a rat liver and completely purified; from tissue; host or cells: rat liver
- method summary: Determination of inhibition rate against cathepsin L
- Format: biochemical
- experimental context: IC50 against cathepsin B divided by IC50 against cathepsin L
Structures can show the parent of a compound that is named as a salt.
// class 0 strictly below 2000 in B/L; class 1 otherwise

These recorded examples may help you get a feel for the data.
NCCCC[C@H](NC(=O)[C@H]1O[C@@H]1C(=O)N[C@@H](Cc1ccccc1)C(N)=O)C(=O)Nc1ccccc1 [Example 55, hydrochloride]	class 1
NCCCC[C@H](NC(=O)[C@H]1O[C@@H]1C(=O)N[C@@H](Cc1ccccc1)C(=O)NCCc1ccccc1)C(=O)Nc1ccccc1 [Example 35, hydrochloride]	class 1
CCNC(=O)[C@H](Cc1ccccc1)NC(=O)[C@H]1O[C@@H]1C(=O)N[C@@H](CCCCN)C(=O)Nc1ccccc1 [Example 67, hydrochloride]	class 0

Lookup: Hi, just wondering whether NCCCC[C@H](NC(=O)[C@H]1O[C@@H]1C(=O)N[C@@H](Cc1ccccc1)C(=O)Nc1ccccc1)C(=O)Nc1cccc2ccccc12 [Example 57, hydrochloride] shows B/L of 2000 or higher.
Found: class 1

Lookup: Hi, just wondering whether CNC(=O)[C@H](Cc1ccccc1)NC(=O)[C@H]1O[C@@H]1C(=O)N[C@@H](CCCCN)C(=O)Nc1ccccc1 [Example 63, hydrochloride] shows B/L of 2000 or higher.
Found: class 0

Lookup: Hi, just wondering whether NCCCC[C@H](NC(=O)[C@H]1O[C@@H]1C(=O)Nc1cccc2ccccc12)C(=O)Nc1cccc2ccccc12 [Example 30, hydrochloride] shows B/L of 2000 or higher.
Found: class 0

Lookup: Hi, just wondering whether COc1ccccc1NC(=O)[C@H](CCCCN)NC(=O)[C@H]1O[C@@H]1C(=O)N[C@@H](Cc1ccccc1)C(=O)NCCc1ccccc1 [Example 39, hydrochloride] shows B/L of 2000 or higher.
Found: class 1

====

Quick reference: pIC50 of the listed items.
- assayed target: UniProt:P00787
pIC50: −log10 of the molar value. Structures can show the parent of a compound that is named as a salt.

CC(C)NC(=O)[C@H](Cc1ccccc1)NC(=O)[C@H]1O[C@@H]1C(=O)N[C@@H](CCCCN)C(=O)Nc1ccccc1 [Example 61, hydrochloride]	< 5.00
NCCCC[C@H](NC(=O)[C@H]1O[C@@H]1C(=O)N[C@@H](Cc1ccccc1)C(N)=O)C(=O)Nc1cccc2ccccc12 [Example 14, hydrochloride]	< 5.00
CN(C)C(=O)[C@H](Cc1ccccc1)NC(=O)[C@H]1O[C@@H]1C(=O)N[C@@H](CCCCN)C(=O)Nc1ccccc1 [Example 65, hydrochloride]	< 5.00
NCCCC[C@H](NC(=O)[C@H]1O[C@@H]1C(=O)NC1Cc2ccccc2C1)C(=O)Nc1cccc2ccccc12 [Example 12, hydrochloride]	< 5.00
NCCCC[C@H](NC(=O)[C@H]1O[C@@H]1C(=O)N[C@@H](Cc1ccccc1)C(=O)Nc1ccccc1)C(=O)Nc1cccc2ccccc12 [Example 57, hydrochloride]	< 5.00
NCCCC[C@H](NC(=O)[C@H]1O[C@@H]1C(=O)N[C@@H](Cc1ccccc1)C(=O)NCCc1ccccc1)C(=O)N1CCc2ccccc21 [Example 47, hydrochloride]	4.82
CCNC(=O)[C@H](Cc1ccccc1)NC(=O)[C@H]1O[C@@H]1C(=O)N[C@@H](CCCCN)C(=O)Nc1ccccc1 [Example 67, hydrochloride]	4.17

Please look at the following molecule next.
Lookup: What value of pIC50 on UniProt:P00787 does NCCCC[C@H](NC(=O)[C@H]1O[C@@H]1C(=O)N[C@@H](Cc1ccccc1)C(=O)NCCc1ccccc1)C(=O)Nc1ccccc1C(F)(F)F [Example 43, hydrochloride] have?
Found: 4.05

====

- assayed target: cathepsin B (Rattus norvegicus)
- Construct: extracted from a rat liver and completely purified; from tissue; host or cells: rat liver
- Sequence (P00787 129-333 limits assumed): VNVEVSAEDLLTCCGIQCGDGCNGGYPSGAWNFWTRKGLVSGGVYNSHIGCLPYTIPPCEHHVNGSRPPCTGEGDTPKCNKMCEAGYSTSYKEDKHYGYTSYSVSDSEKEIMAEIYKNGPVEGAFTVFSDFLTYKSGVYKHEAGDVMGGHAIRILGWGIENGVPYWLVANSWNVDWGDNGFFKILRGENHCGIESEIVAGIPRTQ
- Sequence (P00787 80-126 limits assumed): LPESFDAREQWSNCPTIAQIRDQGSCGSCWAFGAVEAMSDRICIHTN
- method summary: Determination of inhibition rate against cathepsin B
- Format: biochemical
- experimental context: cathepsin B from rat liver; substrate Z-Arg-Arg-MCA; pH 5.5; 30° C; 10 minutes
pIC50: −log10 of the molar value. Counter-ions that a name gives are not always drawn.
measure name: pIC50

The following molecules have reported results that may help.
NCCCC[C@H](NC(=O)[C@H]1O[C@@H]1C(=O)NCCc1ccccc1)C(=O)Nc1cccc2ccccc12 [Example 2, hydrochloride]	< 5.00
CNC(=O)[C@H](Cc1ccccc1)NC(=O)[C@H]1O[C@@H]1C(=O)N[C@@H](CCCCN)C(=O)Nc1ccccc1 [Example 63, hydrochloride]	< 5.00

Please look at the following molecule next.
Lookup: Could you tell me which pIC50 is on file for CCCNC(=O)[C@H](Cc1ccccc1)NC(=O)[C@H]1O[C@@H]1C(=O)N[C@@H](CCCCN)C(=O)Nc1ccccc1 [Example 59, hydrochloride] ?
Found: < 5.00

====

- assayed target: cathepsin L (Rattus norvegicus, UniProt P07154)
- Construct: extracted from a rat liver and completely purified; from tissue; host or cells: rat liver
- Sequence (P07154 114-288 limits assumed): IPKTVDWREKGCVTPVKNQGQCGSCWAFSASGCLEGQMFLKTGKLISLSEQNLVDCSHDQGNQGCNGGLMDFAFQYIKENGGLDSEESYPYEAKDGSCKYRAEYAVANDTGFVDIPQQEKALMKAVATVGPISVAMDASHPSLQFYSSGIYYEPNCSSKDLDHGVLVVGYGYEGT
- Sequence (P07154 291-334 limits assumed): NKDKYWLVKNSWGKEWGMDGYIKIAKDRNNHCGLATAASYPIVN
- method summary: Determination of inhibition rate against cathepsin L
- Assay type: biochemical
- experimental context: IC50 against cathepsin B divided by IC50 against cathepsin L
Structures can show the parent of a compound that is named as a salt.
measure name: B/L

NCCCC[C@H](NC(=O)[C@H]1O[C@@H]1C(=O)N[C@@H](Cc1ccccc1)C(=O)NC1CCCCC1)C(=O)Nc1ccccc1 [Example 69, hydrochloride]	> 1177
NCCCC[C@H](NC(=O)[C@H]1O[C@@H]1C(=O)N[C@@H](Cc1ccccc1)C(N)=O)C(=O)N1CCc2ccccc21 [Example 45, hydrochloride]	571
CCCNC(=O)[C@H](Cc1ccccc1)NC(=O)[C@H]1O[C@@H]1C(=O)N[C@@H](CCCCN)C(=O)Nc1ccccc1 [Example 59, hydrochloride]	> 3703
NCCCC[C@H](NC(=O)[C@H]1O[C@@H]1C(=O)NCCc1ccccc1)C(=O)Nc1cccc2ccccc12 [Example 2, hydrochloride]	> 285

Please look at the following compound next.
Lookup: Could you tell me which B/L is on file for NCCCC[C@H](NC(=O)[C@H]1O[C@@H]1C(=O)N[C@@H](Cc1ccccc1)C(=O)NCCc1ccccc1)C(=O)Nc1ccccc1C(F)(F)F [Example 43, hydrochloride] ?
Found: 30000
